Target: Testis-specific serine/threonine-protein kinase 1 (Homo sapiens) (UniProt Q9BXA7);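 note: mean percent inhibition of TSSK1, from the GSK PKIS screening dataset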
Sequence (whole entry): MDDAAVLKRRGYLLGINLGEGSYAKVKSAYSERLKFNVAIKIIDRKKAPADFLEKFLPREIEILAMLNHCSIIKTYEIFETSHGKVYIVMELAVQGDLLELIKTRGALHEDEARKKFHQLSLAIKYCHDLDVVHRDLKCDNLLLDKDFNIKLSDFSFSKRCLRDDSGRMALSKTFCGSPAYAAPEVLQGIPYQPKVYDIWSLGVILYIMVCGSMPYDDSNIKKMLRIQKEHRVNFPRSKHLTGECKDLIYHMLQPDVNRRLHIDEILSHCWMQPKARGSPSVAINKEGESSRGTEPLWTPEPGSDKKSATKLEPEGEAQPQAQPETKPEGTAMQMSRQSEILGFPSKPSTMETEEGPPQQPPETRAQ
Conditions: at 0.1 µM
Measure: inhibition (%)
Return type: number; implicit unit %.

Sample records with inhibition:
Molecule: CC(=O)Nc1cccc(C#Cc2cncnc2Nc2ccc(OCc3cccc(F)c3)c(Cl)c2)n1
inhibition, %: 2.3

Molecule: COc1ccc(COc2ccc(Cc3cnc(N)nc3N)cc2OC)cc1
inhibition, %: 0.44

Molecule: CCn1c(-c2nonc2N)nc2ccncc21
inhibition, %: 2.36

Molecule: CN1CCC(C(=O)Nc2n[nH]c3nnc(-c4ccccc4)cc23)CC1
inhibition, %: 5.87

Answer with the recorded inhibition of COc1ccc(-c2coc3ncnc(N)c23)cc1 only.
4.08

Answer with the recorded inhibition of O=C1NC(=O)C(c2ccc(Cl)cc2)=C1Nc1ccc(Cl)c(C(=O)O)c1 only.
-1.77

----------
Molecular target: Serine/threonine-protein kinase SIK1 (Homo sapiens);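 note: mean inhibition value from the GSK PKIS profiling set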
Conditions: at 1 µM
Measure: inhibition (%)
Return type: number; implicit unit %.

Sample records with inhibition:
Molecule: O=C(Nc1n[nH]c2nc(-c3ccco3)c(Br)cc12)C1CC1
Measure: inhibition
Readout units: %
Value: 5.66
--
Molecule: COc1ccc(COc2ccc(Cc3cnc(N)nc3N)cc2OC)cc1
Measure: inhibition
Readout units: %
Value: 2.92
--
Molecule: CCn1c(-c2nonc2N)nc2c(C#CC(C)(C)O)nc(CN3CCCC3)cc21
Measure: inhibition
Readout units: %
Value: 0.38

Answer with the recorded inhibition of NS(=O)(=O)c1ccc(N/N=C2\C(=O)Nc3ccc(C(=O)NCCc4c[nH]cn4)cc32)cc1 only.
32.5

Answer with the recorded inhibition of Cc1cccc(-c2n[nH]cc2-c2ccc3ncccc3n2)n1 only.
3.97

Answer with the recorded inhibition of COc1cc(C)c(NC(=O)CN(C)C)cc1Nc1nc(Nc2cccc(F)c2C(N)=O)c2cc[nH]c2n1 only.
5.28

Answer with the recorded inhibition of CC1=C(C(=O)Nc2ccc3[nH]ncc3c2)C(c2ccc(Cl)c(Cl)c2)CC(=O)N1 (stereo not given) only.
2.84

Answer with the recorded inhibition of CS(=O)(=O)CCNCc1nc(-c2ccc3ncnc(Nc4ccc(F)c(Cl)c4)c3c2)cs1 only.
8.78

Answer with the recorded inhibition of Fc1cccc(COc2ccc(Nc3ncnc4sc(-c5cccs5)cc34)cc2Cl)c1 only.
7.28

Answer with the recorded inhibition of COc1cc2c(cc1Nc1nc(N3CCc4ccccc43)c3cc[nH]c3n1)N(C(=O)CN(C)C)CC2 only.
7.48

----------
A collection of compounds and their measured inhibition
Target: Protein-tyrosine kinase 2-beta (Homo sapiens);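 note: reported as mean percent inhibition of PYK2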
Settings: at 0.1 µM
Dear colleague, please send the value followed by its unit.

Compound: CC(C)=Cc1cccc2c1/C(=N/Nc1ccc(S(N)(=O)=O)cc1)C(=O)N2
inhibition: 3.24%
--
Compound: Cc1cc(O)cc(C)c1/C=C/c1cncc(-c2nn[nH]n2)c1
inhibition: 12.8%
--
Compound: NCc1ccc(-c2nc(-c3ccc(Cl)c(O)c3)c(-c3ccncc3)[nH]2)cc1
inhibition: 3.97%
--
Compound: COc1cc2ncn(-c3cc(O[C@H](C)c4ccccc4Cl)c(C(N)=O)s3)c2cc1OC
inhibition: 10.3%
--
Compound: COc1ccc(COc2ccc(Cc3cnc(N)nc3N)cc2OC)cc1
inhibition: -3.39%

// switching to the query compound
Answer with the recorded inhibition of CCCN1CCC(Oc2cc(Nc3nc(Nc4cccc(F)c4C(N)=O)c4cc[nH]c4n3)c(OC)cc2Cl)CC1 only.
38.2%

----------
A collection of compounds and their measured inhibition
Target: Proto-oncogene tyrosine-protein kinase ROS (Homo sapiens) (UniProt P08922)
Sequence (P08922 whole entry): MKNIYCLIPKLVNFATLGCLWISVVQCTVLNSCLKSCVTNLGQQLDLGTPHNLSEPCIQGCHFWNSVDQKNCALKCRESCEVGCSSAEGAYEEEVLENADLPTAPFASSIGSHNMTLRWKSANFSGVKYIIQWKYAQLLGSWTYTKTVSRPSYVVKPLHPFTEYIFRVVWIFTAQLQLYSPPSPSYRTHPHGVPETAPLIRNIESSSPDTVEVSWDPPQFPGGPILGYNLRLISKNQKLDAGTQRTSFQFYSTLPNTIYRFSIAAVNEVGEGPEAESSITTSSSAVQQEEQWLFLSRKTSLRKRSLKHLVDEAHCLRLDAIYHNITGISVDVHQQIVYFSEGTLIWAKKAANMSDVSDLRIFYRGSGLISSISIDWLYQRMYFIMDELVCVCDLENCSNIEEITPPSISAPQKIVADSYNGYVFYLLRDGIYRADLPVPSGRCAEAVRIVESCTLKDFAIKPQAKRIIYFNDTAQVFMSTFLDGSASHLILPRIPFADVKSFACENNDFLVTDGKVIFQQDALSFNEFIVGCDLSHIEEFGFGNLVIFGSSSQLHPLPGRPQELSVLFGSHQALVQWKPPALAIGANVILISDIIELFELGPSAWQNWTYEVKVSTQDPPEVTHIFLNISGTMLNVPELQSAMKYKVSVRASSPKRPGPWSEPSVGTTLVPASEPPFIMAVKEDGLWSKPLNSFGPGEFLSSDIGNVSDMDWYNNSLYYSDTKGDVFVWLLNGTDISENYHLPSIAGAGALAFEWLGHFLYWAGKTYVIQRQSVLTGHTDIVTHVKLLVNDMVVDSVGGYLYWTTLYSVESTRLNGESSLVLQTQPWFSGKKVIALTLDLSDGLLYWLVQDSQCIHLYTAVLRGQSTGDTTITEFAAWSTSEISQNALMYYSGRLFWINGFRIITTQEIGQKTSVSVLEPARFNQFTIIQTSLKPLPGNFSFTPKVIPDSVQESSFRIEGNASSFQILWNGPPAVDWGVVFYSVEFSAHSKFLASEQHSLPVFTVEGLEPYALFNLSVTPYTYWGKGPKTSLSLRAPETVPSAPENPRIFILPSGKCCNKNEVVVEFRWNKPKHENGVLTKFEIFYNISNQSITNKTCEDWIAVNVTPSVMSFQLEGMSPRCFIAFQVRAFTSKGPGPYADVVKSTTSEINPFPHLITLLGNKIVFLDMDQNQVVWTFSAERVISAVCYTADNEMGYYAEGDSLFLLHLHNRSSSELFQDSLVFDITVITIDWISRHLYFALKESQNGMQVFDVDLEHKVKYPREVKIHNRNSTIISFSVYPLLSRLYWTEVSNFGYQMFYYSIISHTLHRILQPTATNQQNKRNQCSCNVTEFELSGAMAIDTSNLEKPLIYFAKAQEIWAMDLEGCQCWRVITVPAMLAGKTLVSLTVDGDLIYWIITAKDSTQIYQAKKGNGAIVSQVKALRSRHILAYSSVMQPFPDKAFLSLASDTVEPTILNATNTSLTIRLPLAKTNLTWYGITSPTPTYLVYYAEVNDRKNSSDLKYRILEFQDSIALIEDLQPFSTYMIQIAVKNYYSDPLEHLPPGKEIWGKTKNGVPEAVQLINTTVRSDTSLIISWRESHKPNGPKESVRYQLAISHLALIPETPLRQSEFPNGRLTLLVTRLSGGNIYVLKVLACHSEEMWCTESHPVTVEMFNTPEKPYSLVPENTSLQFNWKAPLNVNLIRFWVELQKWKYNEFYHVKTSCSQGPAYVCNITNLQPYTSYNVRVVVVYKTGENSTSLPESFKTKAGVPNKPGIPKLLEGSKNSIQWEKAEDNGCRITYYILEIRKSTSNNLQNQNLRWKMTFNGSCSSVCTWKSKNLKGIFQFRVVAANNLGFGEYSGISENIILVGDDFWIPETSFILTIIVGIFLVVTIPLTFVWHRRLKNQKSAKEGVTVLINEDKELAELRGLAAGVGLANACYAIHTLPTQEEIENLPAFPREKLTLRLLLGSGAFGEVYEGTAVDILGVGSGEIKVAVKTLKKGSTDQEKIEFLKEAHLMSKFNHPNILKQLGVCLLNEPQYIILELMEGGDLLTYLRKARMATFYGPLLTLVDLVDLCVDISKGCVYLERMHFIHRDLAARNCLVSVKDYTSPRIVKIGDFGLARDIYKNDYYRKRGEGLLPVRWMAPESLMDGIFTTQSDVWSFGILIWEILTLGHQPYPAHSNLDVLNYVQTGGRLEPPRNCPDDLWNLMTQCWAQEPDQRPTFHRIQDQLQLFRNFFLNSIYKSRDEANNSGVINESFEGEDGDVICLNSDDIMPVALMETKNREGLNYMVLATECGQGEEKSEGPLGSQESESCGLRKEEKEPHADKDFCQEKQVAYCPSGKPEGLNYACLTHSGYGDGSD
Settings: at 0.1 µM
Description: GSK_PKIS: ROS mean inhibition at 0.1 uM [Nanosyn]
Dear colleague, please send the value followed by its unit.

Sample records with inhibition:
Chemical string: CCn1c(-c2nonc2N)nc2c(N3CCCC3)nccc21
inhibition: 4.19%

Chemical string: Cc1cccc(-c2n[nH]cc2-c2ccc3ncccc3n2)n1
inhibition: 1.26%

Chemical string: NCc1ccc(-c2nc(-c3ccc(Cl)c(O)c3)c(-c3ccncc3)[nH]2)cc1
inhibition: 2.98%

Chemical string: NS(=O)(=O)c1ccc(N/N=C2\C(=O)Nc3ccc(C(=O)NCCc4c[nH]cn4)cc32)cc1
inhibition: 10.9%

Chemical string: COc1cc(C)c(NC(=O)CN(C)C)cc1Nc1nc(Nc2cccc(F)c2C(N)=O)c2cc[nH]c2n1
inhibition: 79.7%

Chemical string: CN(C)c1cc2c(Nc3ccc4nc(Cc5ccccc5)[nH]c4c3)ncnc2cn1
inhibition: 6.18%

Chemical string: Cc1nn(C)c2cc(N(C)c3ccnc(Nc4cccc(S(N)(=O)=O)c4)n3)ccc12
inhibition: 63.2%

Chemical string: CS(=O)(=O)Nc1ccc(N/C=C2\C(=O)Nc3ccccc32)cc1
inhibition: 1.48%

Chemical string: CCn1c(-c2nonc2N)nc2cncc(C(=O)N3CCNCC3)c21
inhibition: 7.86%

Chemical string: CCN1CCC(CC(=O)Nc2n[nH]c3nc(-c4cccs4)c(Br)cc23)CC1
inhibition: -0.25%

Answer with the recorded inhibition of COc1ccc(COc2ccc(Cc3cnc(N)nc3N)cc2OC)cc1 only.
5.47%

Answer with the recorded inhibition of COc1cc(C=NNc2ncnc3c2cnn3-c2ccccc2)ccc1O only.
7.09%

----------
Biological target: Phosphatidylinositol 4,5-bisphosphate 3-kinase catalytic subunit alpha isoform (Homo sapiens) (UniProt P42336);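 note: values are mean inhibition figures from the GSK PKIS kinase panel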
Sequence (P42336 whole entry, canonical isoform): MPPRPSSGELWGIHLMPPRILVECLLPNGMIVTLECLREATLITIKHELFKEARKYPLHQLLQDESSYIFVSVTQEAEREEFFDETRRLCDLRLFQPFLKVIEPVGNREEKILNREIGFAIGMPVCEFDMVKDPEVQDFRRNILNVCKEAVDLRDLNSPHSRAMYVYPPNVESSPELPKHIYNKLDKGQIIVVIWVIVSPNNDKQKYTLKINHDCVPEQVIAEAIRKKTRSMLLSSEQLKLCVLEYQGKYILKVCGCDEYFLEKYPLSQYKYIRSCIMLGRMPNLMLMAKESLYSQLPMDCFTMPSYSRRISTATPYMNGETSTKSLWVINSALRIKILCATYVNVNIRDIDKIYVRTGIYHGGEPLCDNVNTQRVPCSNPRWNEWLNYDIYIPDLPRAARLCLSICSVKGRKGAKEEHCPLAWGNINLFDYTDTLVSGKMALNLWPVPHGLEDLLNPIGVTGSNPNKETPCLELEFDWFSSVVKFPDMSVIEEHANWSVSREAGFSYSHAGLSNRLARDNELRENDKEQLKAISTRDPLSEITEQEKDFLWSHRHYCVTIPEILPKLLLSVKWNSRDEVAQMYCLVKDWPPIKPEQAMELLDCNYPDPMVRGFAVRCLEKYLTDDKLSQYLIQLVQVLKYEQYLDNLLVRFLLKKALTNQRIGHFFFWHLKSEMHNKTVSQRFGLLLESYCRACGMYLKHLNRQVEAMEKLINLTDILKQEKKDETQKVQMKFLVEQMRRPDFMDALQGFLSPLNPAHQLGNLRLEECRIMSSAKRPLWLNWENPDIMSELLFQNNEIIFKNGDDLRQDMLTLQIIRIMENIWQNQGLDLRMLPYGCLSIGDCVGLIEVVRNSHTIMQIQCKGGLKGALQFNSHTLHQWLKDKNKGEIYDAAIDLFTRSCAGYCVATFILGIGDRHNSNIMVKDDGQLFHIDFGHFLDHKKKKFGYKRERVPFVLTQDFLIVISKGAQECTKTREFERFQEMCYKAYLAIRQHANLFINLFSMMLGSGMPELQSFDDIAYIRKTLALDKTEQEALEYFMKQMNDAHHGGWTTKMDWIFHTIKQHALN
Settings: at 0.1 µM
A collection of compounds and their measured inhibition
Return type: number; implicit unit %.

Compound: CCCN1CCC=C(c2ccc(Nc3nc(Nc4ccccc4C(N)=O)c4cc[nH]c4n3)c(C)c2)C1
inhibition (%): 4.1

Compound: Fc1cccc(COc2ccc(Nc3ncnc4sc(-c5cccs5)cc34)cc2Cl)c1
inhibition (%): 0.9

Compound: Fc1cccc(COc2ccc(Nc3ncnc4cc(-c5ccc[nH]5)sc34)cc2Cl)c1
inhibition (%): 3.58

Compound: CC(C)=Cc1cccc2c1/C(=N/Nc1ccc(S(N)(=O)=O)cc1)C(=O)N2
inhibition (%): 0.06

Compound: O=C1NC(=O)C(N2CCc3ccccc32)=C1c1ccc(Cl)cc1
inhibition (%): 4.21

Answer with the recorded inhibition of COC(=O)Nc1nc2cc(Oc3cccc(NC(=O)Nc4cc(C(F)(F)F)ccc4F)c3)ccc2[nH]1 only.
-3.27

Answer with the recorded inhibition of COc1cc2c(cc1Nc1nc(N3CCc4ccccc43)c3cc[nH]c3n1)N(C(=O)CN(C)C)CC2 only.
0.76

Answer with the recorded inhibition of CCn1c(-c2nonc2N)nc2c(C#CC(C)(C)O)nc(CN3CCCC3)cc21 only.
-2.21

Answer with the recorded inhibition of O=C1NC(=O)C(c2ccccc2Cl)=C1Nc1cccc(O)c1 only.
1.03

Answer with the recorded inhibition of COc1ccc(-c2coc3ncnc(N)c23)cc1 only.
3.88

Answer with the recorded inhibition of CC1=C(C(=O)Nc2ccc3[nH]ncc3c2)C(c2ccc3ccccc3c2)CC(=O)N1 (stereo unspecified) only.
5.28

----------
Molecular target: Serine/threonine-protein kinase pim-2 (Homo sapiens) (UniProt Q9P1W9);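 note: each value is a mean of the inhibition measurements against the kinase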
Sequence (Q9P1W9 whole entry, looked up): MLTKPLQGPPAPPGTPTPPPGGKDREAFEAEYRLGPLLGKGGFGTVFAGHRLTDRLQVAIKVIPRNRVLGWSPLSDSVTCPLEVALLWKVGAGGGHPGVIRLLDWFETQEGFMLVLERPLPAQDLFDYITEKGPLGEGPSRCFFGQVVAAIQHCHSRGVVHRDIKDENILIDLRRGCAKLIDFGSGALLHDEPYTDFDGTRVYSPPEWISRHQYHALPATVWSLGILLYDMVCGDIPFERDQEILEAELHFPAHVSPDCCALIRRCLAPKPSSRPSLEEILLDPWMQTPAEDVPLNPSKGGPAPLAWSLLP
Settings: at 1 µM
A collection of compounds and their measured inhibition

Sample records with inhibition:
Chemical string: COc1cc2ncn(-c3cc(O[C@@H](C)c4ccccc4Cl)c(C(N)=O)s3)c2cc1OC
inhibition: 0.91%

Chemical string: O=C1NC(=O)C(c2ccccc2Cl)=C1Nc1cccc(O)c1
inhibition: 0.28%

Chemical string: Nc1nc(-c2ccc3c(c2)C(=Cc2cc(Br)c(O)c(Br)c2)C(=O)N3)cs1
inhibition: 50.1%

Chemical string: CCn1c(-c2nonc2N)nc2cncc(C(=O)N3CCNCC3)c21
inhibition: -0.88%

Chemical string: COc1cc2ncn(-c3cc(OCc4ccccc4C(F)(F)F)c(C(N)=O)s3)c2cc1OC
inhibition: -2.85%

Chemical string: CS(=O)(=O)CCNCc1nc(-c2ccc3ncnc(Nc4ccc(F)c(Cl)c4)c3c2)cs1
inhibition: -0.01%

Chemical string: CS(=O)(=O)CCN(CC#N)Cc1ccc(-c2ccc3ncnc(Nc4ccc(OCc5cccc(F)c5)c(Cl)c4)c3c2)o1
inhibition: -3.72%

Chemical string: COc1cc(C=NNc2ncnc3c2cnn3-c2ccccc2)ccc1O
inhibition: 2.11%

Chemical string: Cc1nnc(-c2ccc(C)c(-c3ccc(C(=O)Nc4cccc(C#N)c4)cc3)c2)o1
inhibition: 0.22%

Chemical string: CS(=O)(=O)Nc1ccc(N/C=C2\C(=O)Nc3ccccc32)cc1
inhibition: 0.67%

Answer with the recorded inhibition of CCn1c(-c2nonc2N)nc2cncc(C(=O)N3CC[C@H](N)C3)c21 only.
48.2%

Answer with the recorded inhibition of CCCN1CCC=C(c2ccc(Nc3nc(Nc4ccccc4C(N)=O)c4cc[nH]c4n3)c(C)c2)C1 only.
4.08%

Answer with the recorded inhibition of O=C1NC(=O)C(c2ccc(Cl)cc2)=C1Nc1ccc(Cl)c(C(=O)O)c1 only.
0.1%

Answer with the recorded inhibition of COc1cccc(-n2ncc3c(N/N=C/c4cccc(F)c4)ncnc32)c1 only.
-2.82%

Answer with the recorded inhibition of CCn1c(-c2nonc2N)nc2cnc(Oc3cccc(NC(=O)c4ccc(OCCN5CCOCC5)cc4)c3)cc21 only.
0.68%

Answer with the recorded inhibition of CCCN1CCC(Oc2cc(Nc3nc(Nc4cccc(F)c4C(N)=O)c4cc[nH]c4n3)c(OC)cc2Cl)CC1 only.
2.68%

Answer with the recorded inhibition of NCc1ccc(-c2nc(-c3ccc(Cl)c(O)c3)c(-c3ccncc3)[nH]2)cc1 only.
1.13%

Answer with the recorded inhibition of Cn1cc(C=C2C(=O)Nc3cccnc32)c2ccccc21 only.
3.47%

Answer with the recorded inhibition of COC(=O)Nc1nc2cc(Oc3cccc(NC(=O)Nc4cc(C(F)(F)F)ccc4F)c3)ccc2[nH]1 only.
0.76%

Answer with the recorded inhibition of Nc1ncnc2occ(-c3ccc(NC(=O)Nc4cc(C(F)(F)F)cc(C(F)(F)F)c4)cc3)c12 only.
0.27%
